target_desc: human somatostatin receptor subtype 2 (Homo sapiens)
experiment_summary: cAMP assay for SST2R (inhibition of cAMP in CHO-K1 cells)
experimental_context: Table B; inhibition of cAMP via human SST2 receptor; read-out: SST2 potency
measurement_type: EC50

>>> observed("Cc1cccc2[nH]c(-c3cncc(C(=O)N4CCCC4C(C)C)c3N3CC[C@](C)(N)C3)nc12 (some centres unmarked) [2-36]")
"100 to 1000 nM"
>>> observed("C[C@H](NC(=O)c1cncc(-c2cccc3c2cnn3C)c1N1CC[C@](C)(N)C1)C1CC1 [1-162]")
"> 1000 nM"
>>> observed("Cc1ncc(C(=O)NC2CCC(F)(F)CC2)c(N2CC[C@](C)(N)C2)c1-c1cc(F)cc(OC(F)F)c1 [1-174]")
"100 to 1000 nM"
>>> observed("C[C@]1(N)CCN(c2c(C(=O)NC3CC(F)(F)C3)cnc(C#N)c2-c2cc(F)cc(F)c2)C1 [1-79]")
"100 to 1000 nM"
>>> observed("COc1ncc(C(=O)N[C@@H](C)C(F)(F)F)c(N2CC[C@](C)(N)C2)c1-c1ccc(F)c(F)c1 [1-259]")
"10 to 100 nM"
>>> observed("COc1ncc(C(=O)NC2CC(F)(F)C2)c(N2CC[C@](C)(N)C2)c1-c1cc(F)cc(F)c1 [1-137]")
"100 to 1000 nM"
>>> observed("C[C@]1(N)CCN(c2c(C(=O)NC3CCCC3)cnc(C#N)c2-c2ccnc(C(F)(F)F)c2)C1 [1-248]")
"> 1000 nM"
>>> observed("Cc1cccc2[nH]c(-c3cncc(C(=O)N4CC5CCC4CC5)c3N3CC[C@](C)(N)C3)nc12 [2-35]")
"100 to 1000 nM"

----------
We begin with a simple list: items and their reported pEC50.
target_desc: human somatostatin receptor subtype 5 (Homo sapiens, UniProt P35346)
Construct: expressed in transfected cells
Sequence (P35346 whole entry): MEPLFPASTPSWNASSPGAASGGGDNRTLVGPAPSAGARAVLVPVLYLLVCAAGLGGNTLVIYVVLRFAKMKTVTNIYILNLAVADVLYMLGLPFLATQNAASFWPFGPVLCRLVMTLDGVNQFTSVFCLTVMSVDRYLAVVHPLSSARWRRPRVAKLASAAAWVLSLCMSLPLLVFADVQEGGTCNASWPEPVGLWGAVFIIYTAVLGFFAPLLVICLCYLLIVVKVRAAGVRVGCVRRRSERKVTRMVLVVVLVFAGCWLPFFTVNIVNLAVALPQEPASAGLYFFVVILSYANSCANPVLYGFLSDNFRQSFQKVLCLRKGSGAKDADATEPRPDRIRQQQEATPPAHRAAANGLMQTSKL
experiment_summary: cAMP assay for SST5R (inhibition of cAMP in CHO-K1 cells)
Assay type: cell-based
experimental_context: Table A; inhibition of cAMP via human SST5 receptor; read-out: SST5 potency
pEC50: −log10 of the molar value.
measurement_type: pEC50

>>> observed("Cn1ccc(CNC(=O)c2cnc(C#N)c(-c3cc(F)cc(F)c3)c2N2CC[C@](C)(N)C2)n1")
"7.00 to 8.00"
>>> observed("Cc1cc(F)cc(-c2cncc(C(=O)NC3CCC(F)(F)CC3)c2N2CC[C@](C)(N)C2)c1")
"> 8.00"
>>> observed("C[C@]1(N)CCN(c2c(C(=O)NCC3CC3(F)F)cncc2-c2cc(F)cc(F)c2)C1 (stereo partly shown)")
"> 8.00"
>>> observed("N#Cc1ncc(C(=O)NC2CC(F)(F)C2)c(N2CC[C@H](N)C2)c1-c1cc(F)cc(F)c1")
"> 8.00"
>>> observed("COc1ncc(C(=O)N[C@@H](C)C2CC2)c(N2CC[C@](C)(N)C2)c1-c1ccnc(C(F)(F)F)c1")
"> 8.00"
>>> observed("C[C@]1(N)CCN(c2c(C(=O)NC34CCC(CC3)C4)ccnc2-c2cc(F)cc(F)c2)C1")
"7.00 to 8.00"
>>> observed("Cc1cc(C)cc(-c2cncc(C(=O)Nc3cc(F)cc(Cl)c3)c2N2CC[C@H](N)C2)c1")
"> 8.00"
>>> observed("C[C@]1(N)CCN(c2c(C(=O)NC(C3CCC3)C(F)(F)F)cncc2-c2cc(F)cc(F)c2)C1 (stereo partly shown)")
"> 8.00"
>>> observed("C[C@H](NC(=O)c1cncc(-c2ccc3cnn(C)c3c2)c1N1CC[C@](C)(N)C1)C1CC1")
"> 8.00"
>>> observed("C[C@H](NC(=O)c1cnc(C#N)c(-c2cc(F)cc(F)c2)c1N1CC[C@](C)(N)C1)C1CC1")
"> 8.00"
>>> observed("C[C@H](NC(=O)c1cnc(C#N)c(-c2cc(F)cc(F)c2)c1N1CC[C@H](N)C1)C1CC1")
"> 8.00"
>>> observed("C[C@H](NC(=O)c1cnc(C#N)c(-c2ccnc(C(F)(F)F)c2)c1N1CC[C@](C)(N)C1)C1CC1")
"> 8.00"
>>> observed("Cc1ncc(C(=O)NCC2(O)CCCC2)c(N2CC[C@](C)(N)C2)c1-c1cc(F)cc(F)c1")
"7.00 to 8.00"
>>> observed("Cc1cccc2[nH]c(-c3cncc(C(=O)N4CCC(C(C)(C)C)C4)c3N3CC[C@](C)(N)C3)nc12 (stereo partly shown)")
"> 8.00"
>>> observed("C[C@]1(N)CCN(c2c(C(=O)NC3CCCOC3)cnc(C#N)c2-c2cc(F)cc(F)c2)C1 (stereo partly shown)")
"> 8.00"
>>> observed("C[C@H](NC(=O)c1cnc(C#N)c(-c2cccc(OC(F)F)c2)c1N1CC[C@](C)(N)C1)C1CC1")
"> 8.00"

----------
We begin with a simple list: items and their reported pEC50.
target_desc: human somatostatin receptor subtype 2 (Homo sapiens, UniProt P30874)
Sequence (P30874 whole entry): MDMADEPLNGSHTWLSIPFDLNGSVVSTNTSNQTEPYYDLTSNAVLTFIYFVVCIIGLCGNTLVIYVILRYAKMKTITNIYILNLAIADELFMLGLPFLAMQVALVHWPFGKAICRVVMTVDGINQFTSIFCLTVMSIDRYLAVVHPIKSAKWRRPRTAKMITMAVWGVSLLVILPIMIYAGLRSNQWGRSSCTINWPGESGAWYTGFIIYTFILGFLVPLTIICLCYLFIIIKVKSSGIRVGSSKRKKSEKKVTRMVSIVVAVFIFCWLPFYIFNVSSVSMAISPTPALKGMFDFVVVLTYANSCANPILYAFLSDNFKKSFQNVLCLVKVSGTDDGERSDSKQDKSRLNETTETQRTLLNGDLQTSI
experiment_summary: cAMP assay for SST2R (inhibition of cAMP in CHO-K1 cells)
experimental_context: Table B; inhibition of cAMP via human SST2 receptor; read-out: SST2 potency
pEC50: −log10 of the molar value.
measurement_type: pEC50

>>> observed("Cc1cc(C)cc(-c2cncc(C(=O)Nc3cc(F)cc(Cl)c3)c2N2CC[C@H](N)C2)c1")
"6.00 to 7.00"
>>> observed("COc1ncc(C(=O)N[C@@H](C)C(F)(F)F)c(N2CC[C@H](N)C2)c1-c1cc(F)cc(Cl)c1")
"6.00 to 7.00"
>>> observed("C[C@H](NC(=O)c1cnc(C(F)(F)F)c(-c2cc(F)cc(F)c2)c1N1CC[C@H](N)C1)C(F)(F)F")
"6.00 to 7.00"
>>> observed("COc1ncc(C(=O)NCc2ccon2)c(N2CC[C@](C)(N)C2)c1-c1cc(F)cc(Cl)c1")
"6.00 to 7.00"

----------
We begin with a simple list: items and their reported pEC50.
target_desc: UniProt P30874
experiment_summary: cAMP assay for SST2R (inhibition of cAMP in CHO-K1 cells)
experimental_context: Table B; inhibition of cAMP via human SST2 receptor; read-out: SST2 potency
pEC50: −log10 of the molar value.
measurement_type: pEC50

>>> observed("C[C@H](NC(=O)c1cncc(-c2cc(F)cc(F)c2)c1N1CC[C@](C)(N)C1)C(F)(F)F")
"6.00 to 7.00"
>>> observed("C[C@H](NC(=O)c1cnc(C#N)c(-c2cc(F)cc(F)c2)c1N1C[C@@H](N)[C@H](F)C1)C1CC1")
"6.00 to 7.00"
>>> observed("Cc1ncc(C(=O)N[C@@H](C)C(F)(F)F)c(N2CC[C@H](N)C2)c1-c1cc(F)cc(OC(F)F)c1")
"6.00 to 7.00"
>>> observed("Cc1cccc2[nH]c(-c3cncc(C(=O)NC4CCCCC4)c3N3CC[C@](C)(N)C3)nc12")
"6.00 to 7.00"
>>> observed("N#Cc1ncc(C(=O)NC2CCC(F)(F)CC2)c(N2CC[C@H](N)C2)c1-c1cc(F)cc(F)c1")
"< 6.00"
>>> observed("COc1cc(-c2c(C#N)ncc(C(=O)N[C@@H](C)C(F)(F)F)c2N2CC[C@](C)(N)C2)ccn1")
"6.00 to 7.00"
>>> observed("N[C@H]1CCN(c2c(C(=O)NC3CCC(F)(F)CC3)cnc(C(F)(F)F)c2-c2cc(F)cc(F)c2)C1")
"< 6.00"
>>> observed("CCOC(=O)CCCOc1ncc(C(=O)NC2CCC(F)(F)CC2)c(N2CC[C@H](N)C2)c1-c1cc(F)cc(F)c1")
"< 6.00"

----------
target_desc: human somatostatin receptor subtype 5 (Homo sapiens, UniProt P35346)
Construct: expressed in transfected cells
experiment_summary: cAMP assay for SST5R (inhibition of cAMP in CHO-K1 cells)
Type: cell-based
experimental_context: Table B; class symbols; SST5 receptor over SST2 receptor
measurement_type: Fold selectivity for SST5 vs SST2

>>> observed("COc1ncc(C(=O)N[C@@H](C)C(F)(F)F)c(N2CC[C@](C)(N)C2)c1-c1ccc2nonc2c1")
"+++ (+++=>500)"
>>> observed("COc1ncc(C(=O)N[C@@H](C)C(F)(F)F)c(N2CC[C@](C)(N)C2)c1-c1ccc2ncn(C)c2c1")
"+++ (+++=>500)"
>>> observed("Cc1cc(C)cc(-c2cncc(C(=O)NC3CCC(F)(F)CC3)c2N2CC[C@](C)(N)C2)c1")
"+++ (+++=>500)"
>>> observed("COc1cc(-c2c(C#N)ncc(C(=O)NCC(C)C)c2N2CC[C@](C)(N)C2)ccn1")
"+++ (+++=>500)"
>>> observed("Cc1cc(F)cc(-c2cncc(C(=O)NC3CCc4ccccc43)c2N2CC[C@](C)(N)C2)c1 (stereo partly shown)")
"++ (++=100 to 499)"
>>> observed("CCC(CC)NC(=O)c1cnc(C#N)c(-c2ccnc(C(F)(F)F)c2)c1N1CC[C@](C)(N)C1")
"+++ (+++=>500)"
>>> observed("C[C@H](NC(=O)c1cnc(OCCC(=O)O)c(-c2cc(F)cc(F)c2)c1N1CC[C@](C)(N)C1)C1CC1")
"+++ (+++=>500)"
>>> observed("C[C@]1(N)CCN(c2c(C(=O)NC3CCCCC3)cnc(C(F)(F)F)c2-c2cc(F)cc(F)c2)C1")
"+++ (+++=>500)"
>>> observed("COc1ncc(C(=O)N[C@@H](C)C(F)(F)F)c(N2CC[C@](C)(N)C2)c1-c1ccc(F)c(Cl)c1")
"+++ (+++=>500)"
>>> observed("Cc1ncc(C(=O)N[C@@H](C)C2CC2)c(N2CC[C@H](N)C2)c1-c1cc(F)cc(Cl)c1")
"+++ (+++=>500)"
>>> observed("C[C@H](NC(=O)c1cncc(-c2cccc3c2OC(F)(F)O3)c1N1CC[C@](C)(N)C1)C1CC1")
"++ (++=100 to 499)"
>>> observed("CCC(C)CNC(=O)c1cncc(-c2cc(F)cc(F)c2)c1N1CC[C@](C)(N)C1 (stereo partly shown)")
"++ (++=100 to 499)"
>>> observed("C[C@H](NC(=O)c1cnc(C#N)c(-c2cccc(OC(F)(F)F)c2)c1N1CC[C@](C)(N)C1)C1CC1")
"+++ (+++=>500)"
>>> observed("C[C@]1(N)CCN(c2c(C(=O)NC3CCCCC3)cnc(C#N)c2-c2cc(F)cc(F)c2)C1")
"+++ (+++=>500)"
>>> observed("Cc1cccc2[nH]c(-c3cncc(C(=O)N4CC[C@H]5CCCC54)c3N3CC[C@](C)(N)C3)nc12 (stereo partly shown)")
"++ (++=100 to 499)"
>>> observed("Cc1ncc(C(=O)N[C@@H](C)C2CC2)c(N2CC[C@](C)(N)C2)c1-c1cc(F)cc(C#N)c1")
"+++ (+++=>500)"
